# assayed-system: TRPML3 (Homo sapiens, UniProt Q8TDD5)
# Construct: expressed in transfected cells
# Sequence (Q8TDD5 whole entry): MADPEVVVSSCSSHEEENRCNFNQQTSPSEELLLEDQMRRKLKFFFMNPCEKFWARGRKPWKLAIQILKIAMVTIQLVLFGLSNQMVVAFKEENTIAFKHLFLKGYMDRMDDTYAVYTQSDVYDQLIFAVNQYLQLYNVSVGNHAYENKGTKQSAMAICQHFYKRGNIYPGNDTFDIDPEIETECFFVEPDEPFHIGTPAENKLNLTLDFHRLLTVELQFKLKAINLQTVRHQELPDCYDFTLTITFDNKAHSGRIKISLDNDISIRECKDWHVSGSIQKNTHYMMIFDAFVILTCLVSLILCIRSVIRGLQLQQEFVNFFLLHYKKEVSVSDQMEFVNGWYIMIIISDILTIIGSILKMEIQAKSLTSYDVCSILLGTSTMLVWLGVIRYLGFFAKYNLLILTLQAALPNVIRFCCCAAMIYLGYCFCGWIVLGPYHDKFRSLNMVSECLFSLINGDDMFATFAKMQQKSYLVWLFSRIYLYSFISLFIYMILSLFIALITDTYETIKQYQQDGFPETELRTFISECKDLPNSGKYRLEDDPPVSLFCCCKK
# protocol-text: Fluorescent TRPML3 assay (as for TRPML1)
# Assay type: cell-based
# stated-conditions: Table 3, compounds 101-177
pEC50: −log10 of the molar value.
observable: pEC50

[Q] I am curious: what pEC50 value has been reported for "CC(C)C(=O)N1CCN(c2ncnc3c2c(-c2ccccc2F)cn3-c2cc(C#N)ccn2)CC1" ?
[A] > 7.00

[Q] I am curious: what pEC50 value has been reported for "C[C@H]1CN(C(=O)CC(C)(C)C(F)(F)F)CCN1c1ncnc2c1c(C1CC1)cn2-c1cc(C#N)ccn1" ?
[A] > 7.00

[Q] I am curious: what pEC50 value has been reported for "CC(C)C(=O)N1CCN(c2ncnc3c2c(-c2ccccn2)cn3-c2cc(C#N)ccn2)C[C@H]1C" ?
[A] 5.70 to 6.30

[Q] I am curious: what pEC50 value has been reported for "C[C@H]1CN(C(=O)C2(C)CC2)CCN1c1ncnc2c1c(-c1ccccc1)cn2-c1cc(C#N)ccn1" ?
[A] > 7.00

Turning now to a further compound:
[Q] I am curious: what pEC50 value has been reported for "CCCN(CC)c1cn(-c2cc(C#N)ccn2)c2ncnc(N3CCN(C(=O)C(C)C)C[C@@H]3C)c12" ?
[A] 6.30 to 7.00

* * *

Measured EC50 values are reported for all entries that follow.
# assayed-system: TRPML2 (Homo sapiens)
# Construct: expressed in transfected cells
# Sequence (Q8IZK6 1-566): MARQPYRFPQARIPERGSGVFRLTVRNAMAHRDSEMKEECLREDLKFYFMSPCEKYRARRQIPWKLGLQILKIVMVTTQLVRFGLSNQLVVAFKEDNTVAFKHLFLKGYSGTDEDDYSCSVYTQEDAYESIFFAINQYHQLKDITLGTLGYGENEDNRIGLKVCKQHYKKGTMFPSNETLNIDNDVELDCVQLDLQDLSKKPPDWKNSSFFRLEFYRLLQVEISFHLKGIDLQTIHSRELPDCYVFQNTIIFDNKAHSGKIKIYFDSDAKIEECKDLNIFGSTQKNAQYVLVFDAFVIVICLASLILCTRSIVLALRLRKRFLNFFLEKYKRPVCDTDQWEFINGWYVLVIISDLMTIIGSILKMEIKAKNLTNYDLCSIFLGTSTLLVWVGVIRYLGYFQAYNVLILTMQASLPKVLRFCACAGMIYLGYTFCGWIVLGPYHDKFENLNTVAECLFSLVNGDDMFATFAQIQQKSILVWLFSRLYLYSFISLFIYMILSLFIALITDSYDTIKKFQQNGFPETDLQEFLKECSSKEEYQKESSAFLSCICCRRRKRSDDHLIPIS
# protocol-text: Fluorescent TRPML2 assay (as for TRPML1)
# Assay type: cell-based
# stated-conditions: Table 3, compounds 101-177

Some solved cases for reference:
[Q] I am curious: what EC50 value has been reported for "CC(C)C(=O)N1CCN(c2ncnc3c2c(-c2ccccc2)cn3-c2cc(C#N)ccn2)[C@@H](C)C1" ?
[A] 500 to 2000 nM

[Q] I am curious: what EC50 value has been reported for "C[C@@H]1CN(c2ncnc3c2c(C2CC2)cn3-c2cc(C#N)ccn2)[C@@H](C)CN1C(=O)CC(C)(C)C" ?
[A] 500 to 2000 nM

[Q] I am curious: what EC50 value has been reported for "C[C@H]1CN(C(=O)C(C)(C)C)CCN1c1ncnc2c1c(-c1ccccn1)cn2-c1cc(C#N)ccn1" ?
[A] 500 to 2000 nM

[Q] I am curious: what EC50 value has been reported for "CC(C)(O)C(=O)N1CCN(c2ncnc3c2c(-c2ccccc2F)cn3-c2cc(C#N)ccn2)C(C)(C)C1" ?
[A] 100 to 500 nM

[Q] I am curious: what EC50 value has been reported for "C[C@@H]1CN(c2ncnc3c2c(-c2ccccc2F)cn3-c2cc(C#N)ccn2)CCN1C(=O)C(C)(C)F" ?
[A] 100 to 500 nM

[Q] I am curious: what EC50 value has been reported for "CC(C)C(=O)N1CCN(c2ncnc3c2c(-c2ccccc2F)cn3-c2cc(C#N)ccn2)C(C)(C)C1" ?
[A] < 100 nM

[Q] I am curious: what EC50 value has been reported for "CC(C)C(=O)N1CCN(c2ncnc3c2c(-c2ccccc2F)cn3-c2cc(C#N)ccn2)[C@@H](C)C1" ?
[A] 100 to 500 nM

[Q] I am curious: what EC50 value has been reported for "CC(C)(C)C(=O)N1CCN(c2ncnc3c2c(-c2ccccc2F)cn3-c2cc(C#N)ccn2)CC1" ?
[A] < 100 nM

New cases:
[Q] I am curious: what EC50 value has been reported for "CC(C)C(=O)N1C[C@H](C)N(c2ncnc3c2c(-c2ccccc2F)cn3-c2cc(C#N)ccn2)C[C@H]1C" ?
[A] < 100 nM

[Q] I am curious: what EC50 value has been reported for "C[C@@H]1CN(c2ncnc3c2c(-c2ccccc2)cn3-c2cc(C#N)ccn2)CCN1C(=O)C(C)(C)C" ?
[A] 100 to 500 nM

[Q] I am curious: what EC50 value has been reported for "CCCN(CC)c1cn(-c2cc(C#N)ccn2)c2ncnc(N3CCN(C(=O)CC(C)(C)C)C[C@@H]3C)c12" ?
[A] 100 to 500 nM

[Q] I am curious: what EC50 value has been reported for "Cc1nccnc1-c1cn(-c2cc(C#N)ccn2)c2ncnc(N3C[C@@H](C)N(C(=O)CC(C)C)C[C@@H]3C)c12" ?
[A] > 2000 nM

[Q] I am curious: what EC50 value has been reported for "C[C@H]1CN(C(=O)C2(C)CC2)CCN1c1ncnc2c1c(-c1ccccc1)cn2-c1cc(C#N)ccn1" ?
[A] < 100 nM

[Q] I am curious: what EC50 value has been reported for "C[C@H]1CN(C(=O)CC(C)(C)C(F)(F)F)CCN1c1ncnc2c1c(C1CC1)cn2-c1cc(C#N)ccn1" ?
[A] 100 to 500 nM

* * *

# assayed-system: TRPML2 (Homo sapiens)
# Construct: expressed in transfected cells
# protocol-text: Fluorescent TRPML2 assay (as for TRPML1)
# Format: cell-based
# stated-conditions: Table 3, compounds 201-283
Measured EC50 values are reported for all entries that follow.

Some solved cases for reference:
[Q] I am curious: what EC50 value has been reported for COC(C)(C)C(=O)N1CCN(c2ncnc3c2c(N2CCC2)cn3-c2cc(C#N)ccn2)C[C@H]1C [Compound 269] ?
[A] < 100 nM

[Q] I am curious: what EC50 value has been reported for C[C@H]1CN(C(=O)[C@@H](F)C(C)(C)C)CCN1c1ncnc2c1c(C1CC1)cn2-c1cc(C#N)ccn1 (single isomer, unassigned) [Compound 203] ?
[A] < 100 nM

[Q] I am curious: what EC50 value has been reported for C[C@@H]1CN(c2ncnc3c2c(C2CCC2)cn3-c2cc(C#N)ccn2)[C@@H](C)CN1C(=O)C(C)(C)C [Compound 237] ?
[A] > 2000 nM

[Q] I am curious: what EC50 value has been reported for C[C@@H]1CN(c2ncnc3c2c(C2CCC2)cn3-c2cccc(F)c2)[C@@H](C)CN1C(=O)C(C)(C)C [Compound 250] ?
[A] > 2000 nM

[Q] I am curious: what EC50 value has been reported for C[C@@H]1CN(c2ncnc3c2c(-c2ccccc2F)cn3-c2cc(F)ccn2)[C@@H](C)CN1C(=O)C1(F)CC1 [Compound 247] ?
[A] 500 to 2000 nM

New cases:
[Q] I am curious: what EC50 value has been reported for [2H]C([2H])([2H])C(C(=O)N1C[C@H](C)N(c2ncnc3c2c(-c2ccccc2F)cn3-c2cc(C#N)ccn2)C[C@H]1C)C([2H])([2H])[2H] (single isomer, unassigned) [Compound 234] ?
[A] 100 to 500 nM

[Q] I am curious: what EC50 value has been reported for C[C@@H]1CN(c2ncnc3c2c(C2CCC2)cn3-c2cccc(C(F)(F)F)c2)[C@@H](C)CN1C(=O)C(C)(C)C [Compound 261] ?
[A] > 2000 nM

[Q] I am curious: what EC50 value has been reported for C[C@@H]1CN(c2ncnc3c2c(C(F)(F)F)cn3-c2cc(C#N)ccn2)[C@@H](C)CN1C(=O)C(C)(C)C [Compound 207] ?
[A] 100 to 500 nM

[Q] I am curious: what EC50 value has been reported for C[C@@H]1CN(c2ncnc3c2c(C2CCC2)cn3-c2cccc(Cl)c2)[C@@H](C)CN1C(=O)C(C)(C)C(F)(F)F [Compound 257] ?
[A] 100 to 500 nM

[Q] I am curious: what EC50 value has been reported for C[C@@H]1CN(c2ncnc3c2c(C2CCC2)cn3-c2cccc(Cl)c2)[C@@H](C)CN1C(=O)C(C)(C)C [Compound 253] ?
[A] 500 to 2000 nM

[Q] I am curious: what EC50 value has been reported for C[C@@H]1CN(c2ncnc3c2c(C2CCC2)cn3-c2cccc(Cl)c2)[C@@H](C)CN1C(=O)CC(C)(C)C(F)(F)F [Compound 258] ?
[A] 500 to 2000 nM
